Assay: xn = mol fraction of the nth substance listed, in the solute-free solvent
Settings: 288.15 K; x2 = 0.9
PROPERTY: solubility (g/100 g solution)

Take a look at these entries with their results.
COMPOUND | solubility (g/100 g solution)
Cc1ncc(CO)c(CO)c1O.Cl + O + CC(C)O | 10.7
Cc1c(Br)c(=O)n(C2CCCC2)c2nc(Cl)ncc12 + CCOC(C)=O + CCO | 0.77
Cc1ncc(CO)c(CO)c1O.Cl + O + CCCO | 11.9
Cc1c(Br)c(=O)n(C2CCCC2)c2nc(Cl)ncc12 + CC1=CC(=O)CC(C)(C)C1 + CC(C)O | 0.844

(P) COC(=O)C(N)CS.Cl (stereo not drawn) + CCO + ClCCl
(Q) Cc1ncc(CO)c(CO)c1O.Cl + O + CC#N
(R) Cc1c(Br)c(=O)n(C2CCCC2)c2nc(Cl)ncc12 + C1CCOC1 + CCO
(S) NC(=O)NC1NC(=O)NC1=O (stereo not drawn) + O + CO
Ask: Put the items in sequence by solubility (g/100 g solution), from largest down. To answer, write out the labels according to the requested order.
Result: Q, P, R, S
